pKi: −log10 of the molar value.
Listed here: molecules with reported pKi for Adenosine receptor A1 (Homo sapiens, UniProt P30542).
property-name: pKi

Previously resolved entries follow.
compound-smiles	pKi
O=C(Nc1ccc(-c2ccncc2)c(-c2ccncc2)n1)C1CC1	6.47
O=C(Nc1ccc(-c2ccncc2)c(-c2cncs2)n1)C1CC1	6.49
CC(=O)Nc1ccc(-c2ccncc2)c(-c2ccco2)n1	6.45

a: O=C(Nc1ccc(-c2ccncc2Cl)c(-c2ccco2)n1)C1CC1
b: O=C(Nc1ccc(-c2ccncc2)c(-c2cccc(F)c2)n1)C1CC1
c: c1cncc(Nc2ncc(-c3ccncn3)c(-c3ccco3)n2)c1
d: CC(=O)Nc1ccc(-c2ccncc2)c(-c2cccc(F)c2)n1
Asked: // sort entries: pKi, high to low The labels, placed in the requested order, form the answer.
Given back: b, d, a, c
(b: 7.85, d: 7.24, a: 6.60, c: 5.55)

###

# target-of-assay: Adenosine receptor A1 (Homo sapiens) (UniProt P30542)
# Sequence (P30542 whole entry): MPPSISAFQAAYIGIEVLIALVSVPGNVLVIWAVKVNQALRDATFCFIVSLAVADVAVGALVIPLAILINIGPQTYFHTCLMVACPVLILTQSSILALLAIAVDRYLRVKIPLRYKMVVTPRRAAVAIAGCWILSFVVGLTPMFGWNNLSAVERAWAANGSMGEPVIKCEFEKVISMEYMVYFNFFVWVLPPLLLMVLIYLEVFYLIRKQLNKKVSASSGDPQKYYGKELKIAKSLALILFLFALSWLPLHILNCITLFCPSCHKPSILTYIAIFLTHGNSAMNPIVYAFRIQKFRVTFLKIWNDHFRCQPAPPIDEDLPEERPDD
# method-summary: Inhibition of [3H]DPCPX binding to human adenosine A1 receptor expressed in CHO cells at 1 uM after 90 mins by filtration binding assay
# Type: cell-based
property-name: inhibition (%)

I: CC(=O)Nc1ncc(-c2ccncn2)c(-c2ccco2)n1
II: O=C(Nc1ccc(-c2ccncc2)c(-c2ccncn2)n1)C1CC1
Asked: I'd appreciate it if you could identify which of I and II has the greater inhibition. Give the label of your selection.
Given back: II
(II: 3%, I: 2%)

###

# method-summary: Metabolic stability in rat liver microsomes assessed as turnover at 5 uM after 30 mins in absence of NADPH
# Format: ADME, Microsome
# condition-label: read-out: Activity
property-name: metabolised at 0.5 h, 5 µM (%)

Previously resolved entries follow.
compound-smiles	endpoint-unit	metabolised at 0.5 h, 5 µM
O=C(Nc1ccc(-c2ccncc2)c(-c2ccccn2)n1)C1CC1	%	12
O=C(Nc1ccc(-c2ccncc2F)c(-c2ccco2)n1)C1CC1	%	99

a: O=C(Nc1ccc(-c2ccncn2)c(-c2ccco2)n1)C1CC1
b: O=C(Nc1ccc(-c2ccncc2)c(-c2ccccc2F)n1)C1CC1
Asked: I'd appreciate it if you could identify which of a and b has the greater metabolised at 0.5 h, 5 µM. Give the label of your selection.
Given back: b

###

# method-summary: Metabolic stability in rat liver microsomes assessed as turnover at 5 uM after 30 mins in presence of NADPH
# Type: ADME, Microsome
# condition-label: read-out: Activity
property-name: metabolised at 0.5 h, 5 µM (%)
Hi! Could you send only the number? It should be in %, unit omitted.

Asked: I am curious: what metabolised at 0.5 h, 5 µM value has been reported for O=C(Nc1ccc(-c2ccncc2)c(-c2ncco2)n1)C1CC1 ?
Given back: 27

###

# method-summary: Cmax in rat at 1 mg/kg, iv
# Type: ADME, organism-based
# Set-up: dose 1 mg/kg, route intravenous
# condition-label: in vivo
property-name: Cmax (ng/mL)

a: O=C(Nc1ccc(-c2ccncn2)c(-c2ccco2)n1)C1CC1
b: O=C(Nc1ccc(-c2ccncc2)c(-c2ccccn2)n1)C1CC1
Asked: I'd appreciate it if you could identify which of a and b has the greater Cmax. Give the label of your selection.
Given back: b
(b: 822 ng/mL, a: 538 ng/mL)

###

# method-summary: Clearance in rat at 1 mg/kg, iv
# Format: ADME, organism-based
# Design: dose 1 mg/kg, route intravenous
# condition-label: in vivo
property-name: clearance (mL/min/kg)

compound-smiles	clearance / mL/min/kg
O=C(Nc1ccc(-c2ccncc2)c(-c2ccccn2)n1)C1CC1	35

A: O=C(Nc1ccc(-c2ccncc2)c(-c2ncco2)n1)C1CC1
B: O=C(Nc1ccc(-c2ccncn2)c(-c2ccco2)n1)C1CC1
Asked: I'd appreciate it if you could identify which of A and B has the greater clearance. Give the label of your selection.
Given back: B
